target: T1, EphA5 antigen (Homo sapiens, UniProt P54756); assay: ka (1/Ms)
T1 construct: purchased R and D systems 3036-A5
attributeMeasured: ka (M⁻¹ s⁻¹)
Write the value in M⁻¹ s⁻¹ as a bare number.

>>> observedresult("VH5/VK2: humanized anti-EphA5 antibody, VH SEQ ID NO:6, VL SEQ ID NO:10; lead variant (antibody, V domains shown) VH: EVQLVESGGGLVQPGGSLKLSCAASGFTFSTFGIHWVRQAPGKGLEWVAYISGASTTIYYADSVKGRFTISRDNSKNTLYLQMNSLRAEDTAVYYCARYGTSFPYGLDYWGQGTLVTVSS VL: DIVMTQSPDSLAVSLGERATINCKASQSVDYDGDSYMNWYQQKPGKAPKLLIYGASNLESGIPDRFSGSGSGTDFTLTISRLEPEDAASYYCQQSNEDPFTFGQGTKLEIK")
"1.34e+06"
>>> observedresult("VH3/VK4: humanized anti-EphA5 antibody, VH SEQ ID NO:4, VL SEQ ID NO:12; lead variant (antibody, V domains shown) VH: EVQLVESGGGLVQPGGSLKLSCAASGFTFSTFGIHWVRQAPGKGLEWVAYISGASTTIYYADTVKGRFTISRDNSKNTLYLQMNSLRSEDTAMYYCARYGTSFPYGLDYWGQGTLVTVSS VL: DIVMTQSPDSLAVSLGERATINCKSSQSVDYDGDSYMNWYQQKPGKAPKLLIYGASNLESGIPDRFSGSGSGTDFTLTISRLEPEDAASYYCQQSNEDPFTFGQGTKLEIK")
"1.31e+06"

Request the reported ka associated with VH5/VK4: humanized anti-EphA5 antibody, VH SEQ ID NO:6, VL SEQ ID NO:12; lead variant (antibody, V domains shown) VH: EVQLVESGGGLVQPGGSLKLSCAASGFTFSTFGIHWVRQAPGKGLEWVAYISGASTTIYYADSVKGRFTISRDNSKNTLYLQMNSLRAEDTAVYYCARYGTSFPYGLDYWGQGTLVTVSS VL: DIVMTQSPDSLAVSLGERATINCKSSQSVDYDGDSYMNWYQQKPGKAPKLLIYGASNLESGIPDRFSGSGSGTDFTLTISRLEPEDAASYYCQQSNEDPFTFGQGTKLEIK
1.23e+06
